The origin of these recorded values is patent US20250154115A1.

biological target: UniProtKB Q8NFU5; experiment: Enzyme-coupled assay, IPMK IC50; type: biochemical; details: enzyme-coupled assay; Table 4

chemical_string	IC50
O=C(Nc1cccc(-c2onc3ccc(-c4nnn[nH]4)cc23)c1)C1CC1	< 10 nM
CC(C)N1CCC(Oc2cccc(-c3onc4ccc(-c5nnn[nH]5)cc34)c2)CC1	10 to 100 nM
c1ccc(-c2onc3ccc(-c4nnn[nH]4)cc23)cc1	10 to 100 nM
Clc1ccc(-c2cccc(-c3onc4ccc(-c5nnn[nH]5)cc34)c2)c(Cl)c1	10 to 100 nM
c1cc(OC2CCN(CC3CC3)CC2)cc(-c2onc3ccc(-c4nnn[nH]4)cc23)c1	10 to 100 nM
c1ccc(Oc2ccc(-c3onc4ccc(-c5nnn[nH]5)cc34)cc2)cc1	< 10 nM
FC(F)(F)c1ccc(-c2onc3ccc(-c4nnn[nH]4)cc23)cc1	10 to 100 nM
c1cc(OC2CCN(C3CCC3)CC2)cc(-c2onc3ccc(-c4nnn[nH]4)cc23)c1	10 to 100 nM
O=C(Nc1cccc(-c2onc3ccc(-c4nnn[nH]4)cc23)c1)C1CCCC1	< 10 nM
CC(C)(C)OC(=O)N1CCC(Oc2cccc(-c3onc4ccc(-c5nnn[nH]5)cc34)c2)CC1	< 10 nM

---

Collected IC50 values appear next to each entry.
target: IPMK (Homo sapiens (Human)); assay: Enzyme-coupled assay, IPMK IC50; assay type: biochemical; settings: enzyme-coupled assay; Table 2
Sequence (Q8NFU5 whole entry, species assumed): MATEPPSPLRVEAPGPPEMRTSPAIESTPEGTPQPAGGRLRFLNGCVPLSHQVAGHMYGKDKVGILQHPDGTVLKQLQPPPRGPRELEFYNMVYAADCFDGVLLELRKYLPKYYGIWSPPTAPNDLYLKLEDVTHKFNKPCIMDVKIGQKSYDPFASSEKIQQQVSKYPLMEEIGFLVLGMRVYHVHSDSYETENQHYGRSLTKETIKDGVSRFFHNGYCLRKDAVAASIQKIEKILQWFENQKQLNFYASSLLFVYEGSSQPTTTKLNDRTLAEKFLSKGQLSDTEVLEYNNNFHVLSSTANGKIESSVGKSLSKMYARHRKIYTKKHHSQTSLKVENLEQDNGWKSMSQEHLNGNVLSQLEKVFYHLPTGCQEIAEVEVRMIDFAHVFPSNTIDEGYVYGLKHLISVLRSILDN

compound	IC50
O=C(O)c1ccc2noc(-c3cccc(-c4cccc(Cl)c4)c3)c2c1 [Compound 51]	10 to 100 nM
CC(C)NC(=O)c1ccc(-c2onc3ccc(C(=O)O)cc23)cc1 [Compound 38]	1000 to 100000 nM
CC(C)C(=O)Nc1cccc(-c2onc3ccc(C(=O)O)cc23)c1 [Compound 50]	100 to 1000 nM
O=C(O)c1ccc2noc(-c3ccc(NC(=O)c4ccc(Cl)cc4)cc3)c2c1 [Compound 45]	1000 to 100000 nM
CNC(=O)c1ccc2noc(-c3cccc(Oc4ncc(Cl)cc4Cl)c3)c2c1 [Compound 31]	1000 to 100000 nM
O=C(O)c1ccc2noc(-c3ccc(C(=O)NCCC4CC4)cc3)c2c1 [Compound 39]	100 to 1000 nM
O=C(O)c1ccc2noc(-c3ccc(NC(=O)C4CC4)cc3)c2c1 [Compound 35]	1000 to 100000 nM
O=C(O)c1ccc2noc(-c3cccc(NC(=O)C4CC4)c3)c2c1 [Compound 42]	10 to 100 nM
O=C(O)c1ccc2noc(-c3ccc(NC(=O)c4ccccc4)cc3)c2c1 [Compound 46]	1000 to 100000 nM
O=C(O)c1ccc2noc(-c3cccc(Oc4ccccn4)c3)c2c1 [Compound 29]	1000 to 100000 nM
O=C(O)c1ccc2noc(-c3ccc(Oc4ncc(Cl)cc4Cl)cc3)c2c1 [Compound 28]	1000 to 100000 nM
O=C(O)c1ccc2noc(-c3ccc(NC(=O)C4CCCC4)cc3)c2c1 [Compound 43]	1000 to 100000 nM
O=C(O)c1ccc2noc(-c3cccc(NC(=O)C4CCCC4)c3)c2c1 [Compound 49]	10 to 100 nM
CNC(=O)c1ccc2noc(-c3ccc(-c4ccccc4)cc3)c2c1 [Compound 26]	10 to 100 nM
O=C(O)c1ccc2noc(-c3cccc(Oc4ncc(Cl)cc4Cl)c3)c2c1 [Compound 30]	10 to 100 nM
CC(C)C(=O)Nc1ccc(-c2onc3ccc(C(=O)O)cc23)cc1 [Compound 36]	1000 to 100000 nM
O=C(CC1CCOCC1)Nc1ccc(-c2onc3ccc(C(=O)O)cc23)cc1 [Compound 37]	1000 to 100000 nM
